# Tested on: MCF7
# Test protocol: Cell cycle arrest in human MCF7 cells assessed as accumulation at G1 phase at 4 uM after 24 hrs using propidium iodide staining by FACS analysis (reference value: 70%)
# Format: functional
Quantity: Activity (%)
Numbers only, in %.

Recorded results for 3 molecules are shown here.
Smiles record	Activity / %
COc1ccc2cc(C#Cc3ccc(-n4c(/C=C/c5ccc(OC)c(OC)c5)nc5ccccc5c4=O)c(C)c3)ccc2c1	70
Cc1cc(C#Cc2ccc(C(C)(C)C)cc2)ccc1-n1c(/C=C/c2ccc(O)cc2)nc2ccccc2c1=O	74
COc1ccc2cc(C#Cc3ccc(-n4c(/C=C/c5cc(OC)c(OC)c(OC)c5)nc5ccccc5c4=O)c(C)c3)ccc2c1	72

Please state Activity for every molecule in the list that follows.
1. Cc1cc(C#Cc2ccccc2)ccc1-n1c(/C=C/c2cc(O)cc(O)c2)nc2ccccc2c1=O
2. Cc1cc(C#Cc2ccccc2)ccc1-n1c(/C=C/c2ccc(O)c([N+](=O)[O-])c2)nc2ccccc2c1=O
3. COc1cccc2c1C(=O)c1c(O)c3c(c(O)c1C2=O)C[C@@](O)(C(=O)CO)C[C@@H]3O[C@H]1C[C@H](N)[C@H](O)[C@H](C)O1
4. Cc1cc(C#Cc2ccc(C(C)(C)C)cc2)ccc1-n1c(/C=C/c2ccc3ccccc3c2)nc2ccccc2c1=O
5. Cc1cc(C#Cc2ccc(C(C)(C)C)cc2)ccc1-n1c(/C=C/c2ccnc3ccccc23)nc2ccccc2c1=O
6. COc1ccc2cc(C#Cc3ccc(-n4c(/C=C/c5ccnc6ccccc56)nc5ccccc5c4=O)c(C)c3)ccc2c1

[83, 73, 82, 72, 94, 74]
